# target.or.system: T1, Mouse latent myostatin (mouse, UniProt O08689 26-267; O08689 268-376)
# T1 construct: Latent form = complex of two propeptides and the mature dimer
# T1 sequence 1: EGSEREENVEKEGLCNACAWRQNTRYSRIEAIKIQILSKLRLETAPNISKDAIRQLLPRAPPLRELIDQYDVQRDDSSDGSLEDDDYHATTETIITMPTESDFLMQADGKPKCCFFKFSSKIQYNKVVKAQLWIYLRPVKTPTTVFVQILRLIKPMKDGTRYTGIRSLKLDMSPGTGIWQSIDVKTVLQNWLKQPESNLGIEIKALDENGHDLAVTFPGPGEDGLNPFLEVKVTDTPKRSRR
# T1 sequence 2: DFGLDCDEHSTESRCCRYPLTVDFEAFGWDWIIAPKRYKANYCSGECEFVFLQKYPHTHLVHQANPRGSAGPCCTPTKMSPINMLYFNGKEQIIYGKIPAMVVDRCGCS
# assay.summary: SPR (BIACORE T200) 37C, pH 7.4, antibody captured by ProA/G
metric: Kd (pM)
Write it as a number; the unit pM goes unstated.

binder MS_M103205H1186-SG1/M103202L889-SK1 (antibody, human IgG1, kappa, V domains shown, also called MS1032LO18-SG1) VH: QVTLKESGPVLVKPTETLTLTCTVSGIDLSHDDISWVRQAPGKGLEWVGIISYAGKKYYASWAKGRLTISKDTSKNQVVLTMTNMDPVDTATYYCARGVPAYSHGGDLWGQGTLVTVSS VL: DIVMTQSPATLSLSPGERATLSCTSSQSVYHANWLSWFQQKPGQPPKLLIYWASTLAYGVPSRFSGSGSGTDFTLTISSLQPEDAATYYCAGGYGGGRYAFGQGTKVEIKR , Kd observed: 272
